B1: SOAT1 (parent)
chain: KSAAMLAVFAVSAVVHEYALAVCL

- Variants of: B1
- Test Method Notes: protein stability index of a GFP-peptide fusion (GPS, HEK-293T) (PSI 1-6); higher = more stable;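 further: lentivirally expressed fusions sorted by FACS into six bins by GFP to DsRed ratio, PSI derived from sequencing read proportions per bin multiplied by bin number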
- Condition Description: c terminus: a fixed tail appended
Returns one of fulfilled or not fulfilled; fulfilled when protein stability index is >= 3.

Solved cases (2 shown):
Variant String	Label Class
E17G	not fulfilled
L6P	fulfilled

Is protein stability index at least 3? Consider L6N
fulfilled

Now this one: V11A
not fulfilled

Now this one: A4L
not fulfilled

Now this one: A21M
fulfilled
